- protocol.notes: Phase 1 open-label 2-sequence crossover single-dose pharmacokinetic study of deutetrabenazine metabolites
- Format: in vivo, human (healthy male and female subjects)
- cond: share of total DHTBZ exposure after single dose deutetrabenazine 24 mg, healthy subjects
Entries and their AUC (% of Total) values follow.
attribute.measured: AUC (% of Total) (%)

[[record]]
molecule = "[2H]C([2H])([2H])Oc1cc2c(cc1OC([2H])([2H])[2H])[C@H]1C[C@@H](O)[C@H](CC(C)C)CN1CC2 [[+]-α-DHTBZ]"
numeric_value = 2

[[record]]
molecule = "[2H]C([2H])([2H])Oc1cc2c(cc1OC([2H])([2H])[2H])[C@@H]1C[C@H](O)[C@@H](CC(C)C)CN1CC2 [[−]-α-DHTBZ]"
numeric_value = 66

[[record]]
molecule = "[2H]C([2H])([2H])Oc1cc2c(cc1OC([2H])([2H])[2H])[C@@H]1C[C@@H](O)[C@@H](CC(C)C)CN1CC2 [[−]-β-DHTBZ]"
numeric_value = 3

[[record]]
molecule = "[2H]C([2H])([2H])Oc1cc2c(cc1OC([2H])([2H])[2H])[C@H]1C[C@H](O)[C@H](CC(C)C)CN1CC2 [[+]-β-DHTBZ]"
numeric_value = 29

